Here, compounds appear alongside IC50 reported for Histone acetyltransferase KAT6B (Homo sapiens, UniProt Q8WYB5) in the literature.
Your answer should be a plain number; it is taken to be in nM.

Known IC50 results, listed for orientation:
>>> meas_value("CC(C)c1ccc(OCC2CC2)c(S(=O)(=O)NC(=O)c2cc3c(F)cc(N4CCC4)cc3o2)c1")
20
>>> meas_value("CC(C)c1ccc2cc(C(=O)NS(=O)(=O)c3ccc(Cl)cc3Cl)oc2c1")
5250
>>> meas_value("CN(c1ccccc1)c1ccc2cc(C(=O)NS(=O)(=O)c3ccc(Cl)cc3Cl)oc2c1")
5720
>>> meas_value("CC(C)c1ccc(OCC2CC2(F)F)c(S(=O)(=O)NC(=O)c2cc3c(F)cc(N4CCC4)cc3o2)c1 (racemic)")
29
>>> meas_value("CC(C)c1ccc(OCc2ccccc2)c(S(=O)(=O)NC(=O)c2cc3c(F)cc(N4CCC4)cc3o2)c1")
15

QUERY: Given the entry `CN(c1ccc2cc(C(=O)NS(=O)(=O)c3ccccc3-c3ccccc3)oc2c1)C1CCCC1` , what IC50 was observed with Histone acetyltransferase KAT6B (Homo sapiens, UniProt Q8WYB5)?
RESULT: 112

QUERY: Lab note: need IC50 with Histone acetyltransferase KAT6B (Homo sapiens, UniProt Q8WYB5) for entry `CN(C)c1ccc2cc(C(=O)NS(=O)(=O)c3ccccc3-c3ccc(CO)cc3)oc2c1` , please look it up.
RESULT: 103

====

// merged dataset of pIC50 values, system = Histone acetyltransferase KAT6B (Homo sapiens), multiple refs
// returns pIC50 (minus log10 of molar concentration), number only

As a guide, the following entries are already answered.
>>> meas_value("COCCN(C)c1ccc2cc(C(=O)NS(=O)(=O)c3ccccc3-c3ccccc3)oc2c1")
6.27
>>> meas_value("Cc1ccc2cccc(S(=O)(=O)NC(=O)c3cc4c(F)cc(C5CC5)cc4o3)c2n1")
7.64
>>> meas_value("CC(C)(C)c1ccc(OCc2ccccc2)c(S(=O)(=O)NC(=O)c2cc3c(F)cc(C4CC4)cc3o2)c1")
7.35

Field: next compound
QUERY: I am curious: what pIC50 value has been reported for `Cc1ccc2cccc(S(=O)(=O)NC(=O)c3cc4c(F)cc(N5CCC5)cc4o3)c2n1` ?
RESULT: 7.70
